- measurement notes: Log P by HPLC on reversed phase columns (EEC directive 79/831 Annex V.A8; methods [a], [b], [c])
- Assay type: physicochemical
Reported values of LogP for individual entries

Reference set (2 entries):
C[Si](C)(CCC(O)(Cn1cncc1C#N)C1(F)CC1)c1ccccc1 (stereo not drawn) [I-668] ... 3.30^[a]
N#Cc1cncn1CC(O)(c1ccc(F)cc1Br)C1(Cl)CC1 (stereo not drawn) [I-387] ... 2.48^[a]

Record summary for N#Cc1cncn1CC(O)(c1ccc(F)cc1Cl)C1CC1 (stereo not drawn) [I-412] : reported LogP = 2.41^[a]

====

- measurement notes: Log P by HPLC on reversed phase columns (EEC directive 79/831 Annex V.A8; methods [a], [b], [c])
- Assay type: physicochemical
- test conditions: reversed phase HPLC column; method [a]: LC-UV, acidic range, 0.1% formic acid in water and acetonitrile as eluent (linear gradient from 10% to 95% acetonitrile)
Class (required): determined from chromatographic logP; valid ranges are bottom bin = under 2, middle bin = from 2 up to 3, top bin = 3 and over

Some solved entries appear below for comparison.
O=C(Cn1cncc1Cl)c1ccc(Oc2ccc(Cl)cn2)cc1C(F)(F)F [IX-72] ... middle bin
N#Cc1cncn1CC(=O)c1ccc(Oc2ccc(Br)cc2)cc1Cl [IX-58] ... top bin
N#Cc1cncn1CC(=O)c1ccc(Oc2ccc(Cl)nc2)nc1C(F)(F)F [IX-140] ... middle bin
O=C(Cn1cncc1F)c1ccc(Oc2ccc(Cl)cc2)cc1Cl [IX-65] ... middle bin
N#Cc1cncn1CC(=O)c1ccc(Oc2ccc(Cl)cc2)cc1C(F)F [IX-75] ... top bin

Lookup: Class for O=C(Cn1cncc1C(F)(F)F)c1ccc(Oc2ccc(I)cc2)cc1F [IX-49] ?
Found: top bin

Lookup: Into which category would you place N#Cc1cncn1CC(=O)c1ccc(F)cc1F [IX-87] ?
Found: bottom bin

Lookup: Consider N#Cc1cncn1CC(=O)c1cnc(Oc2ccc(C(F)(F)F)cc2)cc1Br [IX-115] . To which chromatographic logP class does it belong?
Found: top bin

Lookup: Exam item: assign N#Cc1cncn1CC(=O)c1ccc(Cl)s1 [IX-125] to the correct category.
Found: bottom bin

Lookup: Hello team, could you let me know which band the following molecule falls into: N#Cc1cncn1CC(=O)c1ccc(Oc2ccc(Br)nc2)cc1Cl [IX-76]
Found: middle bin

These data points were gathered from patent US20200031778A1.
